Test: 5-day PK with topical ocular Compound-I in cyclodextrin-based solutions (Example 6)
Format: in vivo, Dutch-Belted rabbits
Conditions: Dutch-Belted, rabbit, central choroid, topical, 30 μL bilateral, HPβCD solutions; q.d. groups 5b, 6b; 24 hr after first daily dose day 4
ENDPOINT: concentration at 24 h (nM)
Expressed in nM, but write only the number.

QUERY: Data request, read-out concentration at 24 h, for Cl.NC(=O)c1c(OCc2c(F)cc(Br)cc2F)nsc1NC(=O)NCCCCN1CCCC1 [Compound-I, hydrochloride]
RESULT: 194

----------
Assay: Ocular pharmacokinetics of formulations, Example 20-4
Type: in vivo, Dutch Belted rabbits
Conditions: Dutch Belted, rabbit, plasma, topical, 4 mg/mL (30 μL per eye, bilateral), Group 4: 4 mg/mL FB suspension, PSD 30 μm/XL, HPMC 0.08%, glycerol 2.5%, HEC 0.2%, VitK3 1 μM, pH ≈7.5, QD; Day 5, 1 hr post dose; read-out: Plasma concentration
ENDPOINT: concentration at 1 h (nM)
Expressed in nM, but write only the number.

QUERY: Data request, read-out concentration at 1 h, for NC(=O)c1c(OCc2c(F)cc(Br)cc2F)nsc1NC(=O)NCCCCN1CCCC1
RESULT: 3.27

----------
Assay: Ocular pharmacokinetics of formulations, Example 20-5
Assay type: in vivo, Dutch Belted rabbits
Settings: Dutch Belted, rabbit, cornea, topical, 30 μL per eye; Group 11: 6 mg/mL suspension, 50 μm particles, TRIS 0.60%, glycerol 2%, HEC 0.2%, HPMC 0.08%, Vitamin K3 1 μM, pH 6, QD for 4 days; 1 hr post dose on Day 5; read-out: Cornea concentration
ENDPOINT: concentration at 1 h (µM)
Expressed in µM, but write only the number.

QUERY: Data request, read-out concentration at 1 h, for Cl.NC(=O)c1c(OCc2c(F)cc(Br)cc2F)nsc1NC(=O)NCCCCN1CCCC1 [Compound-I, hydrochloride]
RESULT: 7.07

----------
Assay: Ocular pharmacokinetics of formulations, Example 20-4
Assay type: in vivo, Dutch Belted rabbits
Details: Dutch Belted, rabbit, plasma, topical, 4 mg/mL (30 μL per eye, bilateral), pH 6, Group 3: 4 mg/mL Salt, eye drops solution (control), pH 6, QD; Day 5, 1 hr post dose; read-out: Plasma concentration
ENDPOINT: concentration at 1 h (nM)
Expressed in nM, but write only the number.

QUERY: Data request, read-out concentration at 1 h, for Cl.NC(=O)c1c(OCc2c(F)cc(Br)cc2F)nsc1NC(=O)NCCCCN1CCCC1 [Compound-I, hydrochloride]
RESULT: 4.5

----------
Assay: Ocular pharmacokinetics of formulations, Example 20-5
Assay type: in vivo, Dutch Belted rabbits
Details: Dutch Belted, rabbit, central retina, topical, 30 μL per eye; Group 12: 10 mg/mL suspension, 50 μm particles, TRIS 0.60%, glycerol 2%, HEC 0.2%, HPMC 0.08%, Vitamin K3 1 μM, pH 6, QD for 4 days; 1 hr post dose on Day 5; read-out: Central Retina concentration
ENDPOINT: concentration at 1 h (nM)
Expressed in nM, but write only the number.

QUERY: Data request, read-out concentration at 1 h, for Cl.NC(=O)c1c(OCc2c(F)cc(Br)cc2F)nsc1NC(=O)NCCCCN1CCCC1 [Compound-I, hydrochloride]
RESULT: 114

----------
Test: Ocular pharmacokinetics of formulations, Example 20-5
Format: in vivo, Dutch Belted rabbits
Conditions: Dutch Belted, rabbit, cornea, topical, 4 mg/mL, 30 μL per eye, pH 6, Group 1: 4 mg/mL Ophthalmic Solution, pH 6 (Control), QD for 4 days; 1 hr post dose on Day 5; read-out: Cornea concentration
Method: The study design (Table 19-1) consisted of forty-seven (47) Dutch Belted rabbits, each receiving a 30 μL bilateral topical ocular dose. Various suspension formulations of the present application were evaluated and compared against a cyclodextrin-based eye drops solution (Control Group 1, Table 19-1). […] Ocular sampling occurred one hour following the first daily dose on Day 5 for all groups. […] For Group 5 only, samples were analyzed for Vitamin K3. […]
ENDPOINT: concentration at 1 h (µM)
Expressed in µM, but write only the number.

QUERY: Data request, read-out concentration at 1 h, for Cl.NC(=O)c1c(OCc2c(F)cc(Br)cc2F)nsc1NC(=O)NCCCCN1CCCC1 [Compound-I, hydrochloride]
RESULT: 14.3
